# System: AMO-1 multiple myeloma xenograft
# method: Quantification of the cleaved form of PARP in vivo, per os (Example C)
# Design: species or system SCID mice
# measurement.setup: 30 mpk, single dose per os, tumors recovered 16 hours after dosing
recorded.endpoint: Cleaved PARP (fold to control)

molecule: COC(C)(C)c1ccc2c(c1)[C@]1(CC[C@@](Nc3cccc(Cl)c3)(C(=O)O)CC1)[C@@H](C[C@@H](C)COc1ccnc3c1[C@H](C)CCC3)C2 [Example 866]
Cleaved PARP (fold to control): 1.2 fold to control

Asked: Return reported Cleaved PARP (fold to control); argument: COc1ccc2c(c1)[C@]1(CC[C@@](Nc3cccc(Cl)c3)(C(=O)O)CC1)[C@@H](C[C@@H](C)COc1ccnc3c1[C@H](C)CCC3)C2 [Example 781]
Given back: 11.6 fold to control

Asked: Return reported Cleaved PARP (fold to control); argument: COCc1ccc2c(c1)[C@]1(CC[C@@](Nc3cccc(Cl)c3)(C(=O)O)CC1)[C@@H](C[C@@H](C)COc1ccnc3c1[C@H](C)CCC3)C2 [Example 919]
Given back: 6.7 fold to control

Asked: Return reported Cleaved PARP (fold to control); argument: C[C@@H](COc1ccnc2c1[C@H](C)CCC2)C[C@H]1Cc2cc3c(cc2[C@]12CC[C@@](Nc1cccc(Cl)c1)(C(=O)O)CC2)OCO3 [Example 840]
Given back: 19.2 fold to control

Asked: Return reported Cleaved PARP (fold to control); argument: C[C@@H](COc1ccnc2c1[C@H](C)CCC2)CN1Cc2cc3c(cc2[C@]12CC[C@@](Nc1cccc(Cl)c1)(C(=O)O)CC2)OCO3 [Example 44]
Given back: 0.7 fold to control

Asked: Return reported Cleaved PARP (fold to control); argument: C[C@@H](COc1ccnc2c1[C@H](C)CCC2)C[C@H]1Cc2cc(F)ccc2[C@]12CC[C@@](Nc1cccc(Cl)c1)(C(=O)O)CC2 [Example 768]
Given back: 0.8 fold to control
